Reference source: the supplement of paper PMC10567573

Assay: protein stability index of a GFP-peptide fusion (GPS, HEK-293T) (PSI 1-6); higher = more stable;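 also: 24-mer peptide tiles fused after GFP, lentivirally expressed, FACS-sorted into six equal bins by GFP/DsRed ratio, decoded by Illumina sequencing, PSI is the read-weighted mean bin number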
Settings: treatment: DMSO; c terminus: a fixed tail appended

| Entry Sequence | protein stability index |
| --- | --- |
| LRLSCMERKKVQIRSMDPSALASD [DCAF4] | 2.99 |
| GPIPSHMIHRTRKQKYFYKGGLVW [CLK3] | 2.47 |
| SPSEKNSSFTWSVPSSGYGAVTAS [SMTNL2] | 3.65 |
| GGGGGGLPISTVREVALLRRLEAF [CDK4] | 3.19 |
| ENSICVGFKRDYYLIRVDGKGSIK [VPS39] | 2.16 |
| LTYACENGHTDVADVLLQAGADLE [ANKRD17] | 4.3 |
| RLLSYRGERVAARGYWGDIATGPF [DNAAF3] | 2.18 |
| CFLLTAMAYDQFLAICRPLTYSTR [OR3A1] | 2.89 |

----------
Below: a set of entries, each annotated with reported protein stability index.
Test: protein stability index of a GFP-peptide fusion (GPS, HEK-293T) (PSI 1-6); higher = more stable
Settings: treatment: DMSO; c terminus: a fixed tail appended
Property Measured: protein stability index

| Entry Sequence | Observed Value |
| --- | --- |
| QDTEVFSWSDNERSSSRINIPERA [FAM104B] | 4.62 |
| ADGIEVSYNACGVLSHIMFDGPEA [ZER1] | 2.93 |
| QICTVKDIKAEPQPLSPASSSYSV [ATF6] | 4.16 |
| SRQDKPLSPAGSSQEAADTPDTRH [YJU2B] | 5.56 |

----------
Test: protein stability index of a GFP-peptide fusion (GPS, HEK-293T) (PSI 1-6); higher = more stable
Details: treatment: MLN4924 1 uM, 8 h; c terminus: a fixed tail appended
The threshold is inclusive: protein stability index of exactly 3 counts as TRUE; values below receive FALSE.

| Entry Sequence | Classification |
| --- | --- |
| QMPPVIVETARSHQRSSSESYTQS [PI4K2A] | TRUE |
| RHNALLSKRLLALTSSDLGCQPSR [TMEM192] | TRUE |
| LASITETIQVHRRYWRSLRVMKVE [HDAC6] | FALSE |
| QVATSPDFDGKLKDIAGEFKEQLQ [ATL3] | TRUE |
| GAGRRRRAGGPPRPMSEPGAGAGS [SMAD6] | TRUE |
| SLSKKYRQDAKYLNMRSTYAKLAA [SEC22B] | FALSE |
| PSVFDGLGDLLMPTMAPAGQPAPV [SNAP91] | TRUE |
| YRHVMLPKDIAKLVPKTHLMSESE [CKS1B] | TRUE |
| ESPRWLYSQGRLSEAEEALYLIAK [SLC22A15] | FALSE |
| TSPSPERSLLLKYARTPTLDPDTM [TRIM14] | TRUE |
| YSQASELPTDAVDCMSRELVSLTS [FBXO34] | TRUE |
| PLSAVYRICLGKFTFPGMSLDKRQ [TPRG1] | FALSE |
| LASRNPCPWHYLHLSGSHNTLAPT [RSPH3] | FALSE |
| RSLNEEHSKQYRCLSFQPECSMKL [VDR] | TRUE |
| RRHCPLPQATFWGLVTPRSWSCHT [SOAT2] | FALSE |

----------
Test: protein stability index of a GFP-peptide fusion (GPS, HEK-293T) (PSI 1-6); higher = more stable
Conditions: treatment: DMSO; c terminus: a fixed tail appended
Property Measured: protein stability index

| Entry Sequence | Observed Value |
| --- | --- |
| TTGLQVPSAVRCLQKRGSATSSSN [FSD1] | 4.13 |
| IYHLDGQETPYLVKLPLPAERVTL [DVL3] | 2.28 |
| LGRMGKHEQALFIYVHILKDTRMA [VPS39] | 2.89 |
| RSKYDYLMILRRVVNESTVCLMGH [TENT5C] | 3.05 |
| LAMKIKVGSDDLERIEARLATLEG [PSD2] | 2.79 |
| WVGTGLAAALAGLVGLATAAFGHV [CPOX] | 2.13 |
| VSAEGSHPDPAPFCADNPSELPPP [DVL3] | 5.25 |
| VTSVSIELEKNFSNFPRQYFALRK [TRIM39] | 2.47 |
| DPSIFTAQPNTMLGRMFGSGREHN [BTBD10] | 3.95 |
| TNSSSLRLPRQNSDGGQKNKPREH [WSB1] | 5.02 |
| TVCDDKWDLVSASVVCRELGFGSA [LOXL2] | 2.54 |
| QIQKYTDCLQFYVNSTLKELRRLF [RTN1] | 2.73 |
| MCYRVRWEEAAPGRAVEHAMFLGD [MYORG] | 2.27 |
| IVANTMPTHLSNGQMSTPETPQPS [HNF4A] | 4.43 |
| KNLFRLEMDMVVFRPEMKKHSWCL [N4BP2L1] | 2.48 |
| EFLTKHLRADNAFMLLTQARLFDE [BTBD1] | 2.54 |
| IGKWFDFKLFFNGRPGIVAWTLIN [DHCR7] | 2.56 |
| CGSFYREPIILPCSHNLCQACARN [TRIM9] | 2.22 |
| IGSVEEQLAQLRCEMEQQSQEYQI [KRT16] | 4.82 |
| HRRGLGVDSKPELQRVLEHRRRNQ [FAM107A] | 4.01 |
| ASSQHSEGSRSSGSNRSGSDRRKE [DVL3] | 5.37 |
| RQGIQLNKTPGAPESSALQPPPQS [WAS] | 4.74 |
| GLSAGYVDAGAEPGRSRMISQEEF [LPCAT4] | 4.47 |
| LSAALASSQKQHSFTSSDKTIKSF [C8orf76] | 3.77 |
| ETRVTSGSMEALNLKQLRKRGSIP [PPFIA4] | 4.6 |
| GPMRPEQFSDEVEPATPEEGEPAT [GAGE1] | 5.39 |
| MCSTLEHNCAHFCINIPGSYVCRC [MATN2] | 3.18 |
| LGDPPPLLTLPRPPLSGALASITE [HDAC6] | 4.33 |
| FQAHRDKYEKLRGDVAIKLKFLEE [ARFIP2] | 2.89 |
| CIELYFDEKYSIEPSWECKFDHIE [NETO1] | 2.13 |
| GHTPLMEAGSAGHVEVARLLLENG [ANKRD17] | 4.22 |
| SYDVALHRTRLQDLRVLVSNASED [SCARA5] | 3.77 |
| PGPKGDPGEKSHWGEGLHQLREAL [EMID1] | 3.32 |
| GEKPFECRQRLIFEQTPALTKHEW [ZNF8] | 3.04 |
| NLKQLRKRGSIPTSLTALSLASAS [PPFIA4] | 3 |
| FIDGKFLPCSSYIDSYDPSTGEVY [ALDH8A1] | 2.44 |
| HSHPPEIKDQGGAGEGLVRSANGF [MAP2] | 4.7 |

----------
Test: protein stability index of a GFP-peptide fusion (GPS, HEK-293T) (PSI 1-6); higher = more stable
Details: treatment: DMSO; c terminus: a fixed tail appended

| Entry Sequence | protein stability index |
| --- | --- |
| PVPAFQSDGTDEPESKEPVEKEEE [SMG5] | 5.57 |
| EKRSRGQVLFDKVCEHLNLLEKDY [EPB41L3] | 2.87 |
| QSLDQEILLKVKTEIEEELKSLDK [BCL2L13] | 4.51 |

----------
Catalogue of protein stability index values
Test: protein stability index of a GFP-peptide fusion (GPS, HEK-293T) (PSI 1-6); higher = more stable
Settings: treatment: DMSO; c terminus: a fixed tail appended

| Entry Sequence | protein stability index |
| --- | --- |
| EQEDPADYCKGGYHPVKIGDLFNG [SRPK2] | 3.9 |
| DTAEVYAAGKAEVVLGNIIKKKGW [KCNAB2] | 3.71 |
| TEGGNDDSDFRELHTAREFSEEDE [RTN2] | 5.42 |
| GREEKCVWKHGITPPLKNVRKKRF [TAF7L] | 3.98 |
| DATQEYKEKLQKCLEPLEQKLQEI [TRIM39] | 4.8 |
| ENAELESRIQEWYEFQIPYICPDY [KRT36] | 2.77 |
| KVTISNRLVSSPCCIVTSTYGWTA [HSP90AB1] | 2.84 |
| WTDSEVDSSCSGQPIHLWQFLKEL [SPDEF] | 2.93 |
| AQILPSRVQGGCYRFDSSSCSSED [DRICH1] | 4.05 |
| GAKMTERGSVARPTQGPETPRSPE [PXN] | 5.59 |
| SFTQGEGARPLSTRVPRAAIVFTD [MATN2] | 3.5 |
| LVMASLYHIYVALEEEIERNKESP [HMOX1] | 2.27 |
| CKSGYHPTKSHSFRAMCQNGKLVY [CFHR2] | 2.16 |
| SAQYSQQLQAARNEYLLNLVATNA [FCHSD1] | 2.71 |
| EYHQPQAPANVAKIQLRLAGQKRK [LOXL2] | 4.34 |
| GGNPFAEPSELDNPFQDPAVIQHR [SCAMP3] | 4.67 |
| VASAPLQPPVPSLSEVKPPPPPPP [TRADD] | 5.02 |
| GAGEGAAASPELSALEEAFRRFAV [TPPP] | 3.58 |
